Target: JAK2 (Homo sapiens)
Construct: GST; purchased Life Technologies
Sequence (O60674 whole entry): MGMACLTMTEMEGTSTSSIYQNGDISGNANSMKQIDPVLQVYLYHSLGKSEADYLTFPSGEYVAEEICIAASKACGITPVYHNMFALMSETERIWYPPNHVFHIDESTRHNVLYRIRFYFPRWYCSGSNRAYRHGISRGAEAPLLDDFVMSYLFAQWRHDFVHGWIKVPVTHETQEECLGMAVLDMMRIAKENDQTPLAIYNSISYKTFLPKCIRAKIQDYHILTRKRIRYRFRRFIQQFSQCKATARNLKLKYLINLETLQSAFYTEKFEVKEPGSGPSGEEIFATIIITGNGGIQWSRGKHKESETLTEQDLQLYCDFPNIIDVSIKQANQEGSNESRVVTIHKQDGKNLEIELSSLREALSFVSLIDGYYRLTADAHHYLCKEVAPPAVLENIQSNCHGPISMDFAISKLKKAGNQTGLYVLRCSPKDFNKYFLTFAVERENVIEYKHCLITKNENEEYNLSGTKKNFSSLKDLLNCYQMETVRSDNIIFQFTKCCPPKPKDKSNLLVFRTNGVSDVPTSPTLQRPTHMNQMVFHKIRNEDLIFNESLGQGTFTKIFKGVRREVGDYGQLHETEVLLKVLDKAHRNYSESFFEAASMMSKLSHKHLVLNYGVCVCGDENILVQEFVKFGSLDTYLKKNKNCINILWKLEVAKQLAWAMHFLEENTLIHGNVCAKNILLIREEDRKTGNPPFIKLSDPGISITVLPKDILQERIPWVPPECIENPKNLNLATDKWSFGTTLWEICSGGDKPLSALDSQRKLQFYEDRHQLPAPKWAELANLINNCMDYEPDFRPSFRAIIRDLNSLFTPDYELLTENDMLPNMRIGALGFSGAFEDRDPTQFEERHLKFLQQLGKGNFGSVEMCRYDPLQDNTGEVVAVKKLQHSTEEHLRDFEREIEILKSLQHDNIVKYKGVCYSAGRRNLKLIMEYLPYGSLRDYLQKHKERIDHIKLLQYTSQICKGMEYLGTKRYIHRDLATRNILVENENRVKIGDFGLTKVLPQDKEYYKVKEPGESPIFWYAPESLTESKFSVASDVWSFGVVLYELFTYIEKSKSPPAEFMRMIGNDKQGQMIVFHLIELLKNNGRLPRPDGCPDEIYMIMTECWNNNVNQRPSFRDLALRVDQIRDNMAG
Assay: Biochemical JAK2 kinase assay (LanthaScreen)
Settings: read-out: JAK 2 (pKi) (converted)
measure: Ki

Consider the worked cases shown below.
Entry CN(C)C/C=C/C(=O)N1CC(CN(C)c2cc(-c3ccc(O)cc3)cc3[nH]ncc23)C1 [Compound 11] has what Ki?
> 100 nM

What would you report for C=CC(=O)N1CCC(F)(C(=O)Nc2cc(-c3ccc(O)cc3)cc3[nH]ncc23)CC1 [Compound 12-58] ?
10 to 100 nM

Note, next up: C=CC(=O)N1CC[C@H](Oc2cc(-c3ccc(O)c(F)c3)cc3[nH]nc(SC)c23)C1 [Compound 1-40]
> 100 nM

Same question, C=CC(=O)N1CC(COc2cc(-c3ccc(O)cc3)cc3[nH]nc(SC)c23)C1 [Compound 18-10] this time
10 to 100 nM

Next: COC1(C)CN(C/C=C/C(=O)N2CC(COc3cc(-c4ccc(O)cc4)cc4[nH]ncc34)C2)C1 [Compound 3-133]
10 to 100 nM

// same read-out, input: C=CC(=O)N1CC(COc2cc(-c3ccc(O)c(F)c3)nc3[nH]ncc23)C1 [Compound 3-87]
> 100 nM

Continuing:
Tell me the measured Ki of COC1CN(C/C=C/C(=O)N2CC(COc3cc(-c4ccc(O)cc4)cc4[nH]ncc34)C2)C1 [Compound 3-132] , please.
> 100 nM

How about this compound: C=CC(=O)N1CC[C@H](Oc2cc(-c3ccc(O)cc3)cc3[nH]nc(COC)c23)C1 [Compound 1-22]
10 to 100 nM

Queued: Cc1cc(O)c(F)cc1-c1cc(O[C@H]2CCN(C(=O)/C=C/CN(C)C)C2)c2cn[nH]c2c1 [Compound 1-29]
10 to 100 nM

Item: C=CC(=O)N1CC[C@H](Oc2cc(-c3ccc(O)c(F)c3Cl)cc3[nH]ncc23)C1 [Compound 1-15]
> 100 nM

What would you report for C=CC(=O)N1CC(CSc2cc(-c3ccc(O)cc3)cc3[nH]ncc23)C1 [Compound 12-34] ?
> 100 nM

And then C=CC(=O)N1CC(COc2nc(-c3ccc(O)c(F)c3)cc3[nH]ncc23)C1 [Compound 3-37] , what is it?
10 to 100 nM

Same thing, different compound: COC1(COc2cc(-c3ccc(O)c(F)c3)cc3[nH]ncc23)CN(C(=O)/C=C/CN(C)C)C1 [Compound 3-74]
> 100 nM

Likewise for C=CC(=O)N1CC[C@H](Sc2cc(-c3ccc(O)cc3)cc3[nH]ncc23)C1 [Compound 12] ?
> 100 nM

Quick one: C=CC(=O)N1CC[C@H](Oc2cc(-c3ccc(O)cc3)cc3[nH]nc(C#N)c23)C1 [Compound 1-45]
> 100 nM

Another compound: C=CC(=O)N1CCC[C@@H](C(=O)Nc2cc(-c3ccc(O)cc3)cc3[nH]ncc23)[C@H]1C [Compound 12-57]
10 to 100 nM

And for C=CC(=O)N1CCSCC1C(=O)Nc1cc(-c2ccc(O)cc2)cc2[nH]ncc12 (stereo not shown) [Compound 12-66] ?
> 100 nM

For COC(CN(C)C/C=C/C(=O)N1CC(COc2cc(-c3ccc(O)cc3)cc3[nH]ncc23)C1)OC [Compound 3-121] then?
10 to 100 nM

Continue with C=CC(=O)N1CC(C)(COc2nc(-c3ccc(O)c(F)c3)nc3[nH]ncc23)C1 [Compound 21]
> 100 nM

Check CN(C)C/C=C/C(=O)N1CCC(C)(Oc2cc(-c3ccc(O)c(Cl)c3)cc3[nH]ncc23)CC1 [Compound 6-4] too.
10 to 100 nM

Repeat for the following compound: COC1CCN(C/C=C/C(=O)N2CC(COc3cc(-c4ccc(O)cc4)cc4[nH]ncc34)C2)CC1 [Compound 3-127]
10 to 100 nM

----------
Reported Ki by item:
Molecular target: JAK3 (Homo sapiens, UniProt P52333)
Sequence (P52333 1-1124): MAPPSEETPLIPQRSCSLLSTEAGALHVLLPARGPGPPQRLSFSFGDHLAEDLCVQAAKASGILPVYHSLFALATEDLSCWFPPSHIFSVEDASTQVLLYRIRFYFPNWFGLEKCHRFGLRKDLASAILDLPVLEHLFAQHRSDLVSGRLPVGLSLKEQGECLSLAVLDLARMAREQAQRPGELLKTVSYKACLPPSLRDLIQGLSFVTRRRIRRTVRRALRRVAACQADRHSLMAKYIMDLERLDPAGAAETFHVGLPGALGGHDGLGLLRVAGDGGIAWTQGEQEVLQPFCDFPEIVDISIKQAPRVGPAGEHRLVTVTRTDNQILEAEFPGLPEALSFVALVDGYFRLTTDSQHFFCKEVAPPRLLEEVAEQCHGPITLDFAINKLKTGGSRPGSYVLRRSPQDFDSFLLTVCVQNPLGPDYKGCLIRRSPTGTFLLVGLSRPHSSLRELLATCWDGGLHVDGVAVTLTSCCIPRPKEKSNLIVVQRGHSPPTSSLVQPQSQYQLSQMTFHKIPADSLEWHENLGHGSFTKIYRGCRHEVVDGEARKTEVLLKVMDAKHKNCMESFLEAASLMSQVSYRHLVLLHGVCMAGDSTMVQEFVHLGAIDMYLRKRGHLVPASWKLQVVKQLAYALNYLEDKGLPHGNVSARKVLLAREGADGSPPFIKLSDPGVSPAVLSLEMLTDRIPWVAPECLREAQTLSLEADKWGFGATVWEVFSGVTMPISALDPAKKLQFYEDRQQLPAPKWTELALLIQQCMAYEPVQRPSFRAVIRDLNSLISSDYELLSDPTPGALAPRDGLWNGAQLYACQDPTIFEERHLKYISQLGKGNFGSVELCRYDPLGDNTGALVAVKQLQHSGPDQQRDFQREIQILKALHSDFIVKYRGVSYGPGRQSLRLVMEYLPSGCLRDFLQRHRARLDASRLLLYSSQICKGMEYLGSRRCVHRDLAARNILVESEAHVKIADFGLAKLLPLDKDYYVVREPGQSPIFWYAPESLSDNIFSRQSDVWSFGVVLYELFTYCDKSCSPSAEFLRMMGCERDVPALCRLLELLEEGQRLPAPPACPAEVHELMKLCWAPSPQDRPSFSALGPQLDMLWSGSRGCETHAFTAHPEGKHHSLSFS
Assay: Biochemical JAK3 kinase assay (LanthaScreen)
Parameters: GST; purchased Life Technologies
Details: read-out: JAK 3 (pKi) (converted)

What is its Ki for JAK3 (Homo sapiens, UniProt P52333)? Entry: `C=CC(=O)N1CC[C@H](Sc2cc(-c3ccc(O)cc3)cc3[nH]ncc23)C1`
100 to 1000 pM

Subsequent entry: `C=CC(=O)N1CCC[C@H](C(=O)Nc2cc(-c3ccc(O)cc3)cc3[nH]ncc23)C1`
< 100 pM

Cool, now `C=CC(=O)N1CC[C@H](S(=O)(=O)c2cc(-c3ccc(O)cc3)cc3[nH]ncc23)C1`
< 100 pM

Also `COC1CCN(C/C=C/C(=O)N2CC(COc3cc(-c4ccc(O)cc4)cc4[nH]ncc34)C2)CC1` ?
< 100 pM

Now the same for `C=CC(=O)N1CC[C@H](Oc2cc(-c3ccc(O)c(Cl)c3)cc3[nH]nc(C)c23)C1`
100 to 1000 pM

Quick one: `COC[C@H]1CCN(C/C=C/C(=O)N2CC(COc3cc(-c4ccc(O)cc4)cc4[nH]ncc34)C2)C1`
100 to 1000 pM

Try the compound `C=CC(=O)N1CCC(Oc2cc(-c3ccc(O)c(F)c3)nc3[nH]ncc23)CC1`
< 100 pM

Shift focus to the following entry.
Give recorded Ki with JAK3 (Homo sapiens, UniProt P52333) for the following compound: `C=CC(=O)N1CC(OCc2cc(-c3ccc(O)cc3)cc3[nH]ncc23)C1`
100 to 1000 pM

----------
Assay: Dynamic moisture sorption (DMS) assessment
Format: physicochemical
Conditions: humidity range of 5% to 90% relative humidity, 25° C.
measure: weight gain (moisture uptake)

Consider the molecule shown here: CN(C)C/C=C/C(=O)N1CC(C(C)(C)Oc2cc(-c3ccc(O)c(Cl)c3)cc3[nH]ncc23)C1 [Form 2] What is its recorded weight gain (moisture uptake)?
7.99%

----------
Measured Ki of individual entries
Molecular target: JAK1 (Homo sapiens)
Construct: GST; purchased Life Technologies
Sequence (P23458 whole entry): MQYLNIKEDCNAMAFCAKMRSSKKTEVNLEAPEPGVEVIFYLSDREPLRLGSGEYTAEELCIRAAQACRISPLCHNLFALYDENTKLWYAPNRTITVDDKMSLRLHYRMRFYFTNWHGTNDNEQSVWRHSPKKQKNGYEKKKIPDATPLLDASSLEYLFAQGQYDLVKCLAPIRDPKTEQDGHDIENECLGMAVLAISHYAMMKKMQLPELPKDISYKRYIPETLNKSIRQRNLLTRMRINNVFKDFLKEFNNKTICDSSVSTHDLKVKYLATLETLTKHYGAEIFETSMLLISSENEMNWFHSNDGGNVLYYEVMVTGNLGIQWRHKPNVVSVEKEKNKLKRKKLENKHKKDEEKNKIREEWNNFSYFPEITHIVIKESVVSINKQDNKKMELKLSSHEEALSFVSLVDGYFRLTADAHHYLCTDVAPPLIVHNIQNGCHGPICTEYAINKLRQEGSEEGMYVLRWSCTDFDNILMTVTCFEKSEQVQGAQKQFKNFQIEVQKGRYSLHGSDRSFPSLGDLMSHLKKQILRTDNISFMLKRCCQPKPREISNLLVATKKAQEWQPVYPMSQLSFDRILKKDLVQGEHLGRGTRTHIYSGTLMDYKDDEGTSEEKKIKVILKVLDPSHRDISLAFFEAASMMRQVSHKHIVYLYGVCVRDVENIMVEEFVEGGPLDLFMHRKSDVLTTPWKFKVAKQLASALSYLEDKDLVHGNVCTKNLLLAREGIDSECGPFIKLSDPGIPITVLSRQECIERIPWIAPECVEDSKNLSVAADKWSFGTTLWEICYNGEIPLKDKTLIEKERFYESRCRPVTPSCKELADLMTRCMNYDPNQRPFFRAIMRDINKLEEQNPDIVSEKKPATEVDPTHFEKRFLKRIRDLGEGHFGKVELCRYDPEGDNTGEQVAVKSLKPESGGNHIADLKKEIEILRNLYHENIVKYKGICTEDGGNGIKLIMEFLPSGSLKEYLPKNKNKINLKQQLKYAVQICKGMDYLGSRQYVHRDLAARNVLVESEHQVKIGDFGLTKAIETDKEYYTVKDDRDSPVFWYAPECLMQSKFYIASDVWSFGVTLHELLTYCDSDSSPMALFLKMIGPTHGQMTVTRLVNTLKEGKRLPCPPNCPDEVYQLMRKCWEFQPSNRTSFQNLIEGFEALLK
Assay: Biochemical JAK1 kinase assay (LanthaScreen)
Details: read-out: JAK 1 (pKi) (converted)

Query (molecule): `C=CC(=O)N1CCC(Oc2nc(-c3ccc(O)cc3)nc3[nH]ncc23)CC1` ; field requested: Ki
> 100 nM

Could you now consider this next molecule?
Fill in: Ki of `C=CC(=O)N1CC[C@H](Oc2nc(-c3ccc(O)cc3)nc3[nH]nc(C(F)F)c23)C1` is ___
> 100 nM

----------
Molecular target: JAK3 (Homo sapiens, UniProt P52333)
Assay: Biochemical JAK3 kinase assay (LanthaScreen)
Design: GST; purchased Life Technologies
Conditions: selectivity JAK3 over JAK1, difference of pKi
measure: JAK3 (pKi)-JAK1 (pKi)

// returns reported JAK3 (pKi)-JAK1 (pKi) for input C=CC(=O)N1CCC(Nc2cc(-c3ccc(O)cc3)cc3[nH]ncc23)CC1 [Compound 7-4]
B (a value of 2.3 to 3)

Another molecule to check: C=CC(=O)N1CCC(Oc2nc(-c3ccc(O)c(Cl)c3)cc3[nH]ncc23)CC1 [Compound 6-21]
B (a value of 2.3 to 3)

Cited source: patent US10392368B2
